Kindly state CRF2R EC50 for each of the entries shown.
Biological target: T1, corticotropin releasing factor 2 receptor
T1 sequence (Q13324 whole entry, species assumed, looked up): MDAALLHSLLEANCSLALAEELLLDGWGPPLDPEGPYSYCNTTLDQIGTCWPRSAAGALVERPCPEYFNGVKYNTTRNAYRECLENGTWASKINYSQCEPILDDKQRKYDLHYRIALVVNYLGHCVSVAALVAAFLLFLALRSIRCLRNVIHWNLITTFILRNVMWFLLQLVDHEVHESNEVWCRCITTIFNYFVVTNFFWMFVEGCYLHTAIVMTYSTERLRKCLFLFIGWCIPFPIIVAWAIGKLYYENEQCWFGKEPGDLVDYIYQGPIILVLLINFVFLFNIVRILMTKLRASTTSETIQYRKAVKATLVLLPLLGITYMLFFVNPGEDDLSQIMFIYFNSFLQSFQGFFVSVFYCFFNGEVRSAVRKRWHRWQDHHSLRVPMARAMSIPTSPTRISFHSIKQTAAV
Experiment: cell-based or functional assay
Ends that are not written are not given here.
Your answer is read as nM, so omit the unit and give the number.

Bench note: what CRF2R EC50 did ZGPPISIDLPQVLLRKMIEIEKQEKEKQQAANNRLLLDTI (C-terminal amide) [SEQ ID NO 197] show? 48.1

Bench note: what CRF2R EC50 did DNPSLSIDLPLQLLRTLLELARTQSQRERAEQNAIIFASV-NH2 [SEQ ID NO 176] show? 12.6

Bench note: what CRF2R EC50 did ZGPPISIDLPYHLLRKMIEIEKQEKEKQQAANNRLLLDTI (C-terminal amide) [SEQ ID NO 208] show? 5.6

Bench note: what CRF2R EC50 did IVLSLDVPIGLLQILLEQAAREQATTNARILARV-NH2 [SEQ ID NO 138] show? 59

Bench note: what CRF2R EC50 did IVLSLDVPIGLLQILIEIEKQEKEKQQAANNRLLLDTI-NH2 [SEQ ID NO 154] show? 10.3

Bench note: what CRF2R EC50 did ZGIVLSLDVPIGLLRKMIEIEKQEKEKQQAANNRLLLDTI (C-terminal amide) [SEQ ID NO 153] show? 9.28

Bench note: what CRF2R EC50 did ZGPPISIDLPWFLLRKMIEIEKQEKEKQQAANNRLLLDTI (C-terminal amide) [SEQ ID NO 187] show? 10.3

Bench note: what CRF2R EC50 did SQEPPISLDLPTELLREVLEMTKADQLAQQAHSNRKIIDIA-NH2 [SEQ ID NO 92] show? 100

Bench note: what CRF2R EC50 did ZGPPISIDVPTYLLRILIEIEKQEKEKQQATTNARILARV (C-terminal amide) [SEQ ID NO 169] show? 17.8

Bench note: what CRF2R EC50 did IVLSLDVPIGLLQILIEIEKQEKEKQQAATTNARILARV-NH2 [SEQ ID NO 168] show? 4.9

Bench note: what CRF2R EC50 did ZGPPISIDLPTFLLRKMIEIEKQEKEKQQAANNRLLLDTI (C-terminal amide) [SEQ ID NO 44] show? 19.1

Bench note: what CRF2R EC50 did DNPSLSIDLPTYLLRTLLELARTQSQRERAEQNAIIFASV-NH2 [SEQ ID NO 173] show? 100

Bench note: what CRF2R EC50 did SQEPPISLDLPFGLLREVLEMTKADQLAQQAHSNRKLLDIA-NH2 [SEQ ID NO 103] show? 100

Bench note: what CRF2R EC50 did ZGPPISIDLPFQLLRKMIEIEKQEKEKQQAAANRLLLDTV (C-terminal amide) [SEQ ID NO 15] show? 6.56

Bench note: what CRF2R EC50 did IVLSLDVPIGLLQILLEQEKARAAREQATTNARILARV-NH2 [SEQ ID NO 3] show? 12.1

Bench note: what CRF2R EC50 did ZGPPISIDLPFHLLRKMIEIEKQEKEKQQAANNRLLLDTI (C-terminal amide) [SEQ ID NO 69] show? 5.85

Bench note: what CRF2R EC50 did ZGPPISIDLPFQLLRKMIEIEKQEKEKQQATTNARLLDTV (C-terminal amide) [SEQ ID NO 20] show? 7.81

Bench note: what CRF2R EC50 did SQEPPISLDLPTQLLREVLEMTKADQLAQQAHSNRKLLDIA-NH2 [SEQ ID NO 105] show? 100

Bench note: what CRF2R EC50 did DNPSLSIDLPFLLLRTLLELARTQSQRERAEQNAIIFASV-NH2 [SEQ ID NO 180] show? 3.14
